# target entity: UniProtKB P37288
# Sequence (P37288 whole entry): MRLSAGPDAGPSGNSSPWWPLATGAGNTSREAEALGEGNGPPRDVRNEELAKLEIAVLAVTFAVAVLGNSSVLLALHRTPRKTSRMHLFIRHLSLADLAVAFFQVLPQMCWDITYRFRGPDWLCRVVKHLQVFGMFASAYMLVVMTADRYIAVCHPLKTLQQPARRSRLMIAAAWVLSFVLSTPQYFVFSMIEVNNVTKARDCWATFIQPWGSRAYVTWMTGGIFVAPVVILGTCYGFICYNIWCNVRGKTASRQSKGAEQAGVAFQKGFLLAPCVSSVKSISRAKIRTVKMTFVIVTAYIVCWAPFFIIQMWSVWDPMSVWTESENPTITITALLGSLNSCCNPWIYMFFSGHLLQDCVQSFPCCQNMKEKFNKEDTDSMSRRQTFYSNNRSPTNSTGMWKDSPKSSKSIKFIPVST
# assay: Functional assay on human vasopressin V1a receptor expressing cell line (intracellular Ca2+ fluorescence)
# Assay type: cell-based
# test parameters: 1321N1 cells, (Arg8)-vasopressin at EC80; read-out: IC50 (nM) on hV1a cell line
measurement label: IC50
Remember to follow the number with its unit.

Query: IC50; subject: O=C(CO)NC1Cc2cc(Cl)ccc2-n2c(nnc2[C@H]2CC[C@H](Oc3ccccn3)CC2)C1 (stereo partly shown) [Example 15] 3.7 nM

Endpoint output: IC50 of CCN[C@@H]1Cc2cc(Cl)ccc2-n2c(nnc2[C@H]2CC[C@H](Oc3ccccn3)CC2)C1 [Example 99] . Value? 2.5 nM

Given O=C1Cc2cc(Cl)ccc2-n2c(nnc2N2CCC3(CC2)OCc2ccccc23)C1 [Example 156] , state its recorded IC50. 9.5 nM

Could you tell me which IC50 is on file for CN(C)[C@H]1Cc2cc(Cl)ccc2-n2c(nnc2[C@H]2CC[C@H](Oc3ccccn3)CC2)C1 [Example 67] ? 2.3 nM

What value of IC50 has been recorded for this entry: OC1Cc2cc(Cl)ccc2-n2c(nnc2[C@H]2CC[C@H](C(F)(F)F)CC2)C1 (stereo partly shown) [Example 72] 21 nM

Which IC50 value is on record for O/N=C1/Cc2cc(Cl)ccc2-n2c(nnc2[C@H]2CC[C@H](Oc3ccccn3)CC2)C1 [Example 208] ? 2.2 nM

Entry OC1Cc2cc(Cl)ccc2-n2c(nnc2[C@H]2CC[C@H](Oc3ccccn3)CC2)C1 (stereo partly shown) [Example 55] : reported IC50 = ? 1.1 nM

Which value of IC50 has been reported for CCO[C@]1(CC)CC[C@@H](c2nnc3n2-c2ccc(Cl)cc2CC(N(C)C)C3)CC1 (stereo partly shown) [Example 245] in the records? 130 nM

Could you tell me which IC50 is on file for OC1Cc2cc(Cl)ccc2-n2c(nnc2N2CCC3(CC2)OCc2ccccc23)C1 (stereo not shown) [Example 172] ? 5.6 nM

IC50 lookup needed for COC1Cc2cc(Cl)ccc2-n2c(nnc2[C@H]2CC[C@H](C(F)(F)F)CC2)C1 (mixture of isomers) [Example 74] , thanks. 2.6 nM

What does the data say about its IC50? Entry: C#CCOC1Cc2cc(Cl)ccc2-n2c(nnc2[C@H]2CC[C@H](Oc3ccccn3)CC2)C1 (stereo partly shown) [Example 211] 1.3 nM

Name the recorded IC50 for COC1Cc2cc(C(F)(F)F)ccc2-n2c(nnc2[C@H]2CC[C@H](Oc3ccccn3)CC2)C1 (stereo partly shown) [Example 50] . 20 nM

# get_value(readout='IC50', item= O=C(N[C@@H]1Cc2cc(Cl)ccc2-n2c(nnc2[C@H]2CC[C@H](Oc3ccccn3)CC2)C1)C1CC(F)(F)C1 [Example 220] ) 2.6 nM

Sample COC(=O)[C@H]1CC[C@H](c2nnc3n2-c2ccc(Br)cc2CC(=O)C3)CC1 [Example 86] — what was its IC50? 12 nM

Consider the compound NCC(=O)N[C@H]1Cc2cc(Cl)ccc2-n2c(nnc2[C@H]2CC[C@H](Oc3ccccn3)CC2)C1 [Example 11] and give its measured IC50. 480 nM

What value of IC50 has been reported for the following compound? CC(C)C(=O)N[C@H]1Cc2cc(Cl)ccc2-n2c(nnc2[C@H]2CC[C@H](Oc3ccccn3)CC2)C1 [Example 120] 465 nM

Record request: IC50 value, item CO[C@]1(C)CC[C@@H](c2nnc3n2-c2ccc(Cl)cc2CC2(C3)OCCCO2)CC1 [Example 204] 2.7 nM

I have this compound here, CN(C)CC(=O)OC1Cc2cc(Cl)ccc2-n2c(nnc2[C@H]2CC[C@H](Oc3ccccn3)CC2)C1 (stereo partly shown) [Example 216] , and I need its recorded IC50. 1.5 nM

Requested field: IC50. Item: COC1Cc2cc(F)ccc2-n2c(nnc2[C@H]2CC[C@H](Oc3ccccn3)CC2)C1 (stereo partly shown) [Example 134] 1.5 nM

I would be grateful if you could share the reported IC50 for CCC(C)N[C@H]1Cc2cc(Cl)ccc2-n2c(nnc2[C@H]2CC[C@H](Oc3ccccn3)CC2)C1 (stereo partly shown) [Example 128] . 14 nM

// query IC50 value for entry CN[C@H]1Cc2cc(Cl)ccc2-n2c(nnc2[C@H]2CC[C@H](Oc3ccccn3)CC2)C1 [Example 78] 12 nM

Name the recorded IC50 for Clc1ccc2c(c1)CC1(Cc3nnc([C@H]4CC[C@H](N5CCOCC5)CC4)n3-2)OCCO1 [Example 162] . 2.9 nM

For CC(C)N1CC[C@]2(CC[C@@H](c3nnc4n3-c3ccc(Cl)cc3CC(O)C4)CC2)C1=O (stereo partly shown) [Example 116] , what is its reported IC50? 2.1 nM

Using the record for COC1Cc2cc(Cl)ccc2-n2c(nnc2[C@H]2CC[C@H](N3CCCC3=O)CC2)C1 (stereo partly shown) [Example 219] , report its IC50. 22 nM

Need IC50, item CC(C)NC1Cc2cc(Br)ccc2-n2c(nnc2[C@H]2CC[C@H](C(F)(F)F)CC2)C1 (stereo partly shown) [Example 46] 410 nM

What measured IC50 goes with c1ccc(O[C@H]2CC[C@H](c3nnc4n3-c3ccccc3CC3(C4)OCCO3)CC2)nc1 [Example 63] ? 1.4 nM

Given O=C(N[C@H]1Cc2cc(Cl)ccc2-n2c(nnc2[C@H]2CC[C@H](Oc3ccccn3)CC2)C1)C1CC1 [Example 119] , state its recorded IC50. 111 nM

IC50 for Clc1ccc2c(c1)C[C@H](NCC1CC1)Cc1nnc([C@H]3CC[C@H](Oc4ccccn4)CC3)n1-2 [Example 199] ? 23 nM

Look at this compound and give its reported IC50. FC(F)(F)[C@H]1CC[C@H](c2nnc3n2-c2ccc(Cl)cc2CC2(C3)OCCCO2)CC1 [Example 89] 1.9 nM

Could you tell me which IC50 is on file for Clc1ccc2c(c1)CC(OCC1CC1)Cc1nnc([C@H]3CC[C@H](Oc4ccccn4)CC3)n1-2 (stereo partly shown) [Example 59] ? 2.5 nM

Return reported IC50; argument: NCC(=O)N[C@@H]1Cc2cc(Cl)ccc2-n2c(nnc2[C@H]2CC[C@H](Oc3ccccn3)CC2)C1 [Example 12] 9 nM

Origin of values: patent US11298363B2
